Each recorded value in this set is attributed to patent US7445897B2.

Overview of reported decrease in apical-to-basolateral flux in MDR11199 cells compared to MDR1wt cells across a group of compounds:
Test system: P-gp (MDR11199, G1199A) in recombinant LLC-PK1 cells
Settings: human, LLC-PK1
readout.kind: decrease in apical-to-basolateral flux in MDR11199 cells compared to MDR1wt cells (fold)

compound.smiles | result
CC(C)(C)NC(=O)[C@@H]1C[C@@H]2CCCC[C@@H]2CN1C[C@@H](O)[C@H](Cc1ccccc1)NC(=O)[C@H](CC(N)=O)NC(=O)c1ccc2ccccc2n1 | 2.3
CC(C)c1nc(CN(C)C(=O)N[C@H](C(=O)N[C@@H](Cc2ccccc2)C[C@H](O)[C@H](Cc2ccccc2)NC(=O)OCc2cncs2)C(C)C)cs1 | 2.3
Cc1cccc(C)c1OCC(=O)N[C@@H](Cc1ccccc1)[C@@H](O)C[C@H](Cc1ccccc1)NC(=O)[C@H](C(C)C)N1CCCNC1=O | 1.6
CC(C)(C)NC(=O)[C@@H]1CN(Cc2cccnc2)CCN1C[C@@H](O)C[C@@H](Cc1ccccc1)C(=O)N[C@H]1c2ccccc2C[C@H]1O | 1.9
